Values from paper PMC12025923

- system_tested: T1, wild-type 14-3-3γ-nLuc (His6-14-3-3γ-nLuc) (human, UniProt P61981 2-247)
- T1 construct: Size ~47.5 kDa as printed; The Nluc forward primer encodes a short linker (GGGGTRS, read from the primer) between 14-3-3γ and nLuc; also called wt 14-3-3γ-nLuc; 14-3-3γ-nLuc wt; source: E. coli Rosetta(DE3)pLysS, purified (Ni-NTA); not shown: nLuc (nanoluciferase), C-terminal, kept
- T1 sequence (looked up): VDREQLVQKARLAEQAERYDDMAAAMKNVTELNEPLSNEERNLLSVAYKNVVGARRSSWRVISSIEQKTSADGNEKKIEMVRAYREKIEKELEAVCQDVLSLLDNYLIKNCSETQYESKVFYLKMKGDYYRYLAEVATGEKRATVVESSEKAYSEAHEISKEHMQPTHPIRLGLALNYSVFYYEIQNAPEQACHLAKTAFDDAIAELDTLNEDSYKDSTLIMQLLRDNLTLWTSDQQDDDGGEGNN
- test_protocol: FRET or BRET; in vitro BRET: 1 nM recombinant nLuc or 14-3-3γ-nLuc with increasing FITC-phosphopeptide in 20 mM Tris-HCl, 150 mM NaCl, 1 mg/mL BSA, 0.1% Tween 20; 250 nM furimazine; net BRET after subtraction of nLuc background; Kd from y = Bmax*x/(Kd + x)
- protocol_conditions: both partners purified
pKd: −log10 of the molar value. Primed or numbered codes have the meaning given here. Where no end group is shown, it is not given here. [ ]: non-standard residue; d: D form. FITC′ = fluorescein isothiocyanate label at the N-terminus; pS = N[C@@H](COP(=O)(O)O)C(=O)O
parameter: pKd

{"columns": ["binder", "pKd"],
 "data": [
  ["{FITC′}-MPTPDATTPQAKGFRRAV[pS]ELDAKQAEAIMSPRFIGRRQSLIE (also called phosphopeptide derived from tyrosine hydroxylase (TH); source: synthetic peptide (AbClonal)) [FITC-pTH]", 7.07]
]}

(1) {FITC′}-QRHSN[pS]LGPIFDGSGGGSGIKARAS[pS]SPVILVGTHLD (leucine-rich repeat kinase 2 (LRRK2), human; also called FITC-LRRK2; source: synthetic peptide (AbClonal)) [FITC-ppLRRK2]
(2) {FITC′}-FPQSA[pS]LPPYFS (SLP76 (Lymphocyte cytosolic protein 2/LCP2), human; source: synthetic peptide (AbClonal)) [FITC-pSLP76]
Could you determine which record has the numerically smaller pKd? Candidates: 1 and 2 Please reply using the label of the selected record. 2
